Test system: MYB mRNA
Assay name: Splicing RT-qPCR assay, canonical (CJ) and alternative (AJ) junction mRNA, K562 cells
Format: cell-based
Reported conditions: Homo sapiens, K562.3 cells, 24 hours, read-out: MYB AJ (AC50, increase in AJ mRNA)
Below is a list of entries, each paired with its recorded AC50 value.

Cc1cn2cc(NC(=O)c3ccc(N4C[C@@H](C)N[C@@H](C)C4)c4[nH]c(C)nc34)cc(F)c2n1 : 1 to 10 µM

Incoming: For the compound shown here, `CN[C@H]1CCN(c2ccc(C(=O)Nc3cc(F)c4nc(C)cn4c3)c3c2nnn3C)C1` , give the reported AC50.
Outgoing: > 10 µM

Incoming: What about this compound? `CCNC1CCN(c2ccc(C(=O)Nc3cc(OC)c4nc(C)cn4c3)c3nn(C)cc23)CC1`
Outgoing: 0.1 to 1 µM

Incoming: Next compound up: `CCN[C@H]1CCN(c2cc(O)c(C(=O)Nc3cc(F)c4nc(C)cn4c3)c3nn(C)cc23)C1`
Outgoing: < 0.1 µM
